Overview of reported IC50 across a group of molecules:
# targetSystem: BACE1 (Homo sapiens (Human), UniProt P56817)
# Sequence (P56817 75-416): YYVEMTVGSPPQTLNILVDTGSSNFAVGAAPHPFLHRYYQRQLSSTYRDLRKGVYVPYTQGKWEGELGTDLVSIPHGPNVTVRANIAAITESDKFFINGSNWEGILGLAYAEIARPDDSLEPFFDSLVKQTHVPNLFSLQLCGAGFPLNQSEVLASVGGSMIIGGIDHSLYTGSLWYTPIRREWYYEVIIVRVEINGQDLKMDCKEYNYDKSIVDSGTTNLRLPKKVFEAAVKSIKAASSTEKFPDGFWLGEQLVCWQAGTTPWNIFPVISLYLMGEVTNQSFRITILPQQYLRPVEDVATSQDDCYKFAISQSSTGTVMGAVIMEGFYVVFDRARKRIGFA
# procedureText: Measurement of BACE1 inhibition by fluorescence resonance energy transfer (FRET), MCA substrate
# cond: read-out: Test Example 1 IC50; FRET, MCA-SEVNLDAEFK(DNP)-NH2 substrate, pH 4.4
Kindly answer with a numeric value in nM, unit omitted.

molecule="COc1cccnc1Nc1ccc2c(c1)C1(COC(N)=N1)C1(COC1)CO2 (stereo not drawn)" endpoint=IC50 recordedresult=3750
molecule="CC#Cc1cncc(-c2ccc3c(c2)C2(COC(N)=N2)C2(COC2)C2(CCC2)O3)c1 (stereo not drawn)" endpoint=IC50 recordedresult=152
molecule="NC1=NC2(CO1)c1cc(Br)ccc1OCC21CC(F)(F)C1 (stereo not drawn)" endpoint=IC50 recordedresult=50600
molecule="NC1=NC2(c3cc(Br)ccc3OCC23CC3)c2cccc(F)c21 (stereo not drawn)" endpoint=IC50 recordedresult=46900
molecule="NC1=NC2(CO1)c1cc(-c3cccnc3F)ccc1OC1(CCC1)C21COC1 (stereo not drawn)" endpoint=IC50 recordedresult=1080
molecule="Cc1cnnc(-c2ccc3c(c2)C2(COC(N)=N2)C2(COC2)C2(CCC2)O3)c1 (stereo not drawn)" endpoint=IC50 recordedresult=13400
molecule="CCOc1cncc(-c2ccc3c(c2)C2(COC(N)=N2)C2(CC2)CO3)c1 (stereo not drawn)" endpoint=IC50 recordedresult=1830
molecule="COc1cccc(-c2ccc3c(c2)C2(COC(N)=N2)C2(COC2)C(C)(C)O3)c1 (stereo not drawn)" endpoint=IC50 recordedresult=401

Let's switch to this molecule now.
Q. Provide one value: measured IC50 of NC1=NC2(CO1)c1cc(-c3cncnc3)ccc1OC1(CCCC1)C21COC1 (stereo not drawn)
A. 319

###

# targetSystem: BACE1 (Homo sapiens (Human), UniProt P56817)
# procedureText: Measurement of BACE1 inhibition by fluorescence resonance energy transfer (FRET), MCA substrate
# cond: read-out: Test Example 1 IC50; FRET, MCA-SEVNLDAEFK(DNP)-NH2 substrate, pH 4.4
Overview of reported IC50 across a group of compounds:

Sample answers from the record:
compound="Cc1cncc(-c2ccc3c(c2)C2(COC(N)=N2)C2(COC2)C2(CCC2)O3)c1 (stereo not drawn)" recordedresult="3670 nM"
compound="NC1=NC2(CO1)c1cc(Br)ccc1OCC21CCC1 (stereo not drawn)" recordedresult="61300 nM"
compound="CC1(C)Oc2ccc(-c3cccc(C(F)(F)F)c3)cc2C2(COC(N)=N2)C12COC2 (stereo not drawn)" recordedresult="903 nM"
compound="CC1(C)Oc2ccc(-c3cc(F)cnc3Cl)cc2C2(COC(N)=N2)C12COC2 (stereo not drawn)" recordedresult="1130 nM"
compound="CC1(C)Oc2ccc(C3=CCCCCC3)cc2C2(COC(N)=N2)C12COC2 (stereo not drawn)" recordedresult="760 nM"
compound="COc1cncc(-c2ccc3c(c2)C2(COC(N)=N2)C2(COC2)C2(CCC2)O3)c1 (stereo not drawn)" recordedresult="817 nM"

Q. Param request: IC50 | system BACE1 (Homo sapiens (Human), UniProt P56817) | item NC1=NC2(CO1)c1cc(-c3cncnc3)ccc1OCC21CC1 (stereo not drawn)
A. 2620 nM

Q. Param request: IC50 | system BACE1 (Homo sapiens (Human), UniProt P56817) | item CC1(C)Oc2ccc(-c3cccc(OC(F)(F)F)c3)cc2C2(COC(N)=N2)C12COC2 (stereo not drawn)
A. 1080 nM

Q. Param request: IC50 | system BACE1 (Homo sapiens (Human), UniProt P56817) | item CC1(C)Oc2ccc(-c3cc(C#N)ccc3F)cc2C2(COC(N)=N2)C12COC2 (stereo not drawn)
A. 1000 nM

Q. Param request: IC50 | system BACE1 (Homo sapiens (Human), UniProt P56817) | item NC1=NC2(CO1)c1cc(-c3cccc(F)c3F)ccc1OC1(CCC1)C21COC1 (stereo not drawn)
A. 1670 nM

Q. Param request: IC50 | system BACE1 (Homo sapiens (Human), UniProt P56817) | item N#C/C=C/c1cccc(-c2ccc3c(c2)C2(COC(N)=N2)C2(COC2)C2(CCC2)O3)c1 (stereo not drawn)
A. 2450 nM

Q. Param request: IC50 | system BACE1 (Homo sapiens (Human), UniProt P56817) | item COC/C=C/c1ccc2c(c1)C1(COC(N)=N1)C1(COC1)C(C)(C)O2 (stereo not drawn)
A. 2590 nM

Q. Param request: IC50 | system BACE1 (Homo sapiens (Human), UniProt P56817) | item NC1=NC2(CO1)c1cc(Br)ccc1OC1(CCC1)C21COC1 (stereo not drawn)
A. 33800 nM

Q. Param request: IC50 | system BACE1 (Homo sapiens (Human), UniProt P56817) | item NC1=NC2(CO1)c1cc(Br)ccc1OC(CCC(F)(F)F)C21COC1 (single isomer, unassigned) [RP 14a]
A. 19000 nM

Q. Param request: IC50 | system BACE1 (Homo sapiens (Human), UniProt P56817) | item CC1(C)Oc2ccc(-c3cncnc3)cc2C2(COC(N)=N2)C12COC2 (single isomer, unassigned) [RP 51b]
A. 172 nM

Q. Param request: IC50 | system BACE1 (Homo sapiens (Human), UniProt P56817) | item CCCC1Oc2ccc(Br)cc2C2(C=C(N)OC2)C12COC2 (single isomer, unassigned) [RP 11b]
A. 17400 nM

Q. Param request: IC50 | system BACE1 (Homo sapiens (Human), UniProt P56817) | item NC1=NC2(CO1)c1cc(-c3cncc(F)c3)ccc1OC1(CCC1)C21COC1 (stereo not drawn)
A. 1750 nM

Q. Param request: IC50 | system BACE1 (Homo sapiens (Human), UniProt P56817) | item NC1=NC2(CS1)c1cc(Br)ccc1OCC21COC1 (stereo not drawn)
A. 24800 nM

###

Overview of reported IC50 across a group of compounds:
# targetSystem: UniProt:P56817
# procedureText: Measurement of BACE1 inhibition by time resolved fluorescence resonance energy transfer (TR-FRET)
# Assay type: biochemical
# cond: Eu-CEVNLDAEFK-QSY 7 substrate, read-out: Test Example 2 IC50
Kindly answer with a numeric value in nM, unit omitted.

Sample answers from the record:
compound="Cc1cn2ccc(-c3ccc4c(c3)C3(COC(N)=N3)C3(COC3)C3(CCC3)O4)cc2n1 (stereo not drawn)" endpoint=IC50 recordedresult=135000
compound="CC1(C)Oc2ccc(-c3cccc4cccnc34)cc2C2(COC(N)=N2)C12COC2 (stereo not drawn)" endpoint=IC50 recordedresult=2060
compound="CC1(C)Oc2ccc(-c3cncc(Cl)n3)cc2C2(COC(N)=N2)C12COC2 (stereo not drawn)" endpoint=IC50 recordedresult=759
compound="NC1=NC2(CO1)c1cc(-c3cnc4ccccc4c3)ccc1OC1(CCC1)C21COC1 (stereo not drawn)" endpoint=IC50 recordedresult=19400
compound="CC1(C)Oc2ccc(-c3cccc4cc[nH]c34)cc2C2(COC(N)=N2)C12COC2 (stereo not drawn)" endpoint=IC50 recordedresult=1550

Q. Provide one value: measured IC50 of CC1(C)Oc2ccc(-c3cccc(OC(F)(F)F)c3)cc2C2(COC(N)=N2)C12COC2 (stereo not drawn)
A. 880

Q. Provide one value: measured IC50 of COC/C=C/c1ccc2c(c1)C1(COC(N)=N1)C1(COC1)C(C)(C)O2 (stereo not drawn)
A. 2130

###

Overview of reported pIC50 across a group of compounds:
# targetSystem: BACE1 (Homo sapiens (Human), UniProt P56817)
# procedureText: Measurement of BACE1 inhibition by fluorescence resonance energy transfer (FRET), MCA substrate
# cond: read-out: Test Example 1 IC50; FRET, MCA-SEVNLDAEFK(DNP)-NH2 substrate, pH 4.4
Keep it numeric: pIC50 is minus log10 of the concentration in mol/L.

Sample answers from the record:
compound="NC1=NC2(CO1)c1cc(-c3cncnc3)ccc1OC1(CCC1)C21COC1 (centres unmarked) [RP 5]" recordedresult=5.81
compound="N#Cc1cnc(C(=O)Nc2ccc3c(c2)C2(COC(N)=N2)C2(CC2)CO3)c(Cl)c1 (centres unmarked) [RP 192]" recordedresult=6.50
compound="CC1(C)Oc2ccc(-c3cc(F)cc(Cl)c3)cc2C2(COC(N)=N2)C12COC2 (centres unmarked) [RP 146]" recordedresult=6.65

Q. Provide one value: measured pIC50 of NC1=NC2(CO1)c1cc(Br)ccc1OCC21CCCO1 (single isomer, unassigned) [RP 1b]
A. 3.86

Q. Provide one value: measured pIC50 of NC1=NC2(CO1)c1cc(-c3cncnc3)ccc1OCC21COC1 (centres unmarked) [RP 36]
A. 5.54

Q. Provide one value: measured pIC50 of CC1(C)Oc2ccc(-c3cncnc3)cc2C2(COC(N)=N2)C12COC2 (single isomer, unassigned) [RP 51a]
A. 4.31

Q. Provide one value: measured pIC50 of COc1cc(-c2ccc3c(c2)C2(COC(N)=N2)C2(COC2)C2(CCC2)O3)c(F)cn1 (centres unmarked) [RP 122]
A. 5.56

Q. Provide one value: measured pIC50 of CC1(C)Oc2ccc(-c3cccc4cc[nH]c34)cc2C2(COC(N)=N2)C12COC2 (centres unmarked) [RP 175]
A. 5.49

Q. Provide one value: measured pIC50 of CC1(C)Oc2ccc(-c3cccnc3Cl)cc2C2(COC(N)=N2)C12COC2 (centres unmarked) [RP 156]
A. 5.58

Q. Provide one value: measured pIC50 of CCCC1Oc2ccc(-c3cncnc3)cc2C2(COC(N)=N2)C12COC2 (centres unmarked) [RP 91]
A. 6.18

Q. Provide one value: measured pIC50 of COc1cncc(-c2ccc3c(c2)C2(COC(N)=N2)C2(CC2)CO3)c1 (centres unmarked) [RP 105]
A. 5.53

Q. Provide one value: measured pIC50 of CC1(C)Oc2ccc(-c3cccc4cccnc34)cc2C2(COC(N)=N2)C12COC2 (centres unmarked) [RP 179]
A. 5.49
